In this section we review reported viability at 28.5 h, 10 µM values for a set of compounds.
# assay_info: in vitro
# experimental_conditions: human, hela cells, % viability

compound: O=C(Cc1ccc([N+](=O)[O-])cc1)Nc1ccc(O)cc1C(=O)O
value_units: %
viability at 28.5 h, 10 µM: 97.6
--
compound: COc1ccc(CCNc2ncnc3c2cnn3-c2ccc(C)cc2C)cc1OC
value_units: %
viability at 28.5 h, 10 µM: 88.2
--
compound: COc1ccc(S(=O)(=O)Nc2cccc(C(=O)Nc3ccc(F)cc3)c2)cc1OC
value_units: %
viability at 28.5 h, 10 µM: 71.7
--
compound: CCN1C(=O)c2ccccc2C(=O)[C@@]2(C)CN(C(C)=O)C[C@@H]12
value_units: %
viability at 28.5 h, 10 µM: 89.7
--
compound: CC(C)(C)OC(=O)NCc1ccc(CNCc2ccccc2C(F)(F)F)cc1
value_units: %
viability at 28.5 h, 10 µM: 92.2
--
compound: O=C(CN1CCN(CCCc2c[nH]c3ccc(F)cc23)CC1)N(c1ccccc1)C1CCCCC1
value_units: %
viability at 28.5 h, 10 µM: 92.1
--
compound: CCc1nc(C)ccc1OCC(O)CNC(C)(C)C (stereo not shown)
value_units: %
viability at 28.5 h, 10 µM: 94.3
--
compound: O=C1CC(c2ccc(F)cc2)Cc2[nH]c(=O)c(C(=O)O)cc21 (stereo not shown)
value_units: %
viability at 28.5 h, 10 µM: 88.8
--
compound: CCc1c(C)sc(NC(=O)CSc2nnnn2C)c1C(=O)OC
value_units: %
viability at 28.5 h, 10 µM: 90.7
--
compound: COc1ccc(NC(=O)Nc2ccccc2C(N)=O)cc1OC
value_units: %
viability at 28.5 h, 10 µM: 94.1
--
compound: COc1cc(NC(=O)C2CCN(S(=O)(=O)c3cccs3)CC2)c(Cl)cc1C(=O)O
value_units: %
viability at 28.5 h, 10 µM: 99.7
--
compound: COc1ccc(CCNC(=O)CN2CCCC2Cn2cncn2)cc1 (stereo not shown)
value_units: %
viability at 28.5 h, 10 µM: 115
--
compound: Cc1nccn1CC1(O)CCN(Cc2cn(C)c3ccccc23)CC1
value_units: %
viability at 28.5 h, 10 µM: 102
--
compound: COc1ccc(NC(=O)NC(=O)c2ccc(Cl)cc2)c(OC)c1
value_units: %
viability at 28.5 h, 10 µM: 93.1
--
compound: COc1cc(/C=N/NC(=O)CCn2c3ccc(Cl)cc3c3cc(Cl)ccc32)ccc1O
value_units: %
viability at 28.5 h, 10 µM: 112
--
compound: Cc1oc2c(c1C(=O)N(C)CCN1CCCCC1)CCCC2
value_units: %
viability at 28.5 h, 10 µM: 90.8
--
compound: Cc1cc(C)n(CCC(=O)N2CCCCC2C(=O)O)n1 (stereo not shown)
value_units: %
viability at 28.5 h, 10 µM: 103
--
compound: CC(=O)N1CCC(n2c(C3CC3)nc3sc(C)c(C)c3c2=O)CC1
value_units: %
viability at 28.5 h, 10 µM: 85.2
--
compound: CCN1CCC(NC(=O)CSc2nc3ccccc3n2CC(C)C)CC1
value_units: %
viability at 28.5 h, 10 µM: 106

====

# assay_info: in vitro
# experimental_conditions: human, hela cells, % viability
Kindly apply the following: Criterion met if viability at 28.5 h, 10 µM is less than 90%, Criterion not met in every other case.

compound: O=C(Cc1ccc(F)cc1)N1CC[C@@H](c2ccccc2)[C@H](O)C1 [CBK283714]
category_label: Criterion met

compound: C[C@H](Cn1nc2c(cc1=O)CCCCC2)NC(=O)c1ccc(F)cc1 [CBK284557]
category_label: Criterion not met

compound: CC1(C)CC(=O)C=C(C(=O)NCc2ccc3c(c2)OCO3)O1 [CBK153290]
category_label: Criterion not met

compound: NC(=O)CN1CC(O)CC1=O (centres unmarked) [CBK011649]
category_label: Criterion met

compound: O=C(CC(NC1CCCC1)C(=O)O)Nc1cccc(Cl)c1 (centres unmarked) [CBK266831]
category_label: Criterion not met

compound: CC1CCc2nn(CCNC(=O)c3ccco3)c(=O)cc2C1 (centres unmarked) [CBK284481]
category_label: Criterion not met

compound: Fc1ccc(-c2cn(-c3ccc(OCc4ccccc4)c(F)c3)nn2)cc1 [CBK113121]
category_label: Criterion not met

compound: COc1ccccc1CN(CC1CCNCC1)C(=O)Nc1c(C)noc1C [CBK049739]
category_label: Criterion not met

compound: CC(=O)c1cc2c(cc1NC(=O)CSc1nc3ccccc3[nH]1)OCO2 [CBK266110]
category_label: Criterion met

compound: COc1ccc(C(CNCC(O)COc2cccc3c2CCCC3)c2ccccc2)cc1 (centres unmarked) [CBK028144]
category_label: Criterion not met

compound: CC[C@H](Cn1ncc2ccccc2c1=O)NC(=O)Cc1ccsc1 [CBK284306]
category_label: Criterion not met

compound: O=C(NCc1ccccc1OC1CCNC1)c1cnccn1 (centres unmarked) [CBK029462T]
category_label: Criterion not met

compound: CC(C)c1ccc(S(=O)(=O)Nc2ccc(C(=O)O)c(O)c2)cc1 [CBK299819]
category_label: Criterion not met

====

# assay_info: in vitro
# experimental_conditions: human, hela cells, % viability
measured_endpoint: viability at 28.5 h, 10 µM (%)

compound: CN(C)CCN(C)C(=O)c1ccc(-c2cc(C(F)(F)F)cc(C(F)(F)F)c2)nc1N(C)C [CBK106069]
result: 97

compound: Cc1csc2c(C3CCCN(C(=O)c4ccncc4)C3)nc(C)n12 (centres unmarked) [CBK285213]
result: 100

compound: C=C(C)CN1CCN(C(=O)C2Cc3cc(Cl)ccc3O2)CC1 (centres unmarked) [CBK282639]
result: 89

compound: Cc1nc(C)c(C(=O)N2C3CCC2c2cc(Cl)cnc2C3)s1 (centres unmarked) [CBK284953]
result: 103

compound: CCC1c2cccn2CCN1Cc1cncn1CC (centres unmarked) [CBK283012]
result: 85.8

====

# assay_info: in vitro
# experimental_conditions: human, hela cells, % viability
Kindly apply the following: Satisfied if viability at 28.5 h, 10 µM is less than 90%, Not satisfied in every other case.

molecule: Cc1ccc2nsnc2c1NC(=O)COc1ccccc1F
category_label: Not satisfied
--
molecule: Cc1ccccc1-c1ccccc1CC1(C(N)=O)CCN(C(=O)CC2CCCCC2)CC1
category_label: Not satisfied
--
molecule: O=C1C2C3C=CC(C3)C2C(=O)N1CCNCCO (centres unmarked)
category_label: Not satisfied
--
molecule: COc1cccc2sc(NC(=O)Cc3ccccc3)nc12
category_label: Not satisfied
--
molecule: CN1C(=O)c2ccccc2OCCCCC[C@H]2[C@@H]1CCCN2C(=O)c1ccccc1Cn1cncn1
category_label: Not satisfied
--
molecule: CCn1c(SCC(=O)Nc2nc(C)c(C(=O)OC)s2)nc2c1c(=O)n(C)c(=O)n2C
category_label: Not satisfied
--
molecule: O=C(O)C(Cc1ccc(O)cc1)c1ccccc1 (centres unmarked)
category_label: Satisfied
--
molecule: CC1(COC(=O)N2CCC(OCc3cnc(-c4ccc(S(C)(=O)=O)cc4)cn3)CC2)COC1
category_label: Satisfied
--
molecule: c1cnc(N2CCN(Cc3ccc4c(c3)OCO4)CC2)c(OC2CCCCC2)n1 [CBK082833T]
category_label: Not satisfied
--
molecule: c1ccc(-c2cc3nccc(-c4ccccc4)n3n2)cc1
category_label: Not satisfied
--
molecule: Cc1nc2c(c(=O)[nH]1)CCN(Cc1ccc(Cl)c(Cl)c1)C2
category_label: Satisfied
--
molecule: COc1ccc(N(Cc2cccnc2)C(=O)c2ccc(-c3ccccc3)[nH]c2=O)cc1
category_label: Not satisfied
--
molecule: Cc1ccc(S(=O)(=O)NC(=O)N2CC3(C)CC2CC(C)(C)C3)cc1 (centres unmarked)
category_label: Not satisfied
--
molecule: NC(=O)c1ccc(NC(=O)N2CCc3ccccc3C2)cc1
category_label: Satisfied
--
molecule: COC(=O)CN1N=C(C(C)(C)C)Cn2c(cc3ccccc32)C1=O
category_label: Not satisfied
--
molecule: CCc1ccc(CC)c(S(=O)(=O)NC(CC(=O)O)c2ccccc2)c1 (centres unmarked)
category_label: Not satisfied
--
molecule: COc1ccc(NC(=O)CCN2C(=O)c3ccccc3S2(=O)=O)cc1
category_label: Satisfied
--
molecule: CCOc1cc(OCC)cc(C(=O)N2CCC3(CC2)CC(=O)c2ccc(OCC)cc2O3)c1
category_label: Not satisfied
--
molecule: Cc1cccc(C(=O)NCCCNC(=O)c2ccncc2)c1
category_label: Not satisfied
--
molecule: Cc1ccccc1-n1nc(C)c(CN(C)CC2CCN(C)C2)c1C (centres unmarked)
category_label: Satisfied
--
molecule: c1ccc(CCN2CCC(Oc3nccnc3OCCN3CCOCC3)CC2)nc1
category_label: Not satisfied
--
molecule: O=C(O)CCCn1c(=O)c2cc3c(=O)n(CCCC(=O)O)c(=O)c3cc2c1=O
category_label: Not satisfied
--
molecule: CC(C)NC(=O)c1ccccc1Br
category_label: Satisfied
--
molecule: O=C(NCC1CCCO1)c1ccc2c(c1)C(=O)N(c1ccccc1-c1ccccc1)C2=O (centres unmarked)
category_label: Satisfied
--
molecule: CCNC(=O)N1CC2(CCN(Cc3nc4ccccc4[nH]3)CC2)c2ccccc21
category_label: Not satisfied
--
molecule: O=C(Nc1c(F)cc(F)cc1OC1CCNCC1)c1coc2c1C(=O)CCC2 [CBK050331T]
category_label: Not satisfied
--
molecule: Cc1ccccc1CC(=O)NCC(c1ccccc1Cl)N1CCOCC1 (centres unmarked)
category_label: Satisfied
